Cited source: ChEMBL document CHEMBL1144921

# system tested: Delta-type opioid receptor (Homo sapiens)
# Sequence (P41143 whole entry): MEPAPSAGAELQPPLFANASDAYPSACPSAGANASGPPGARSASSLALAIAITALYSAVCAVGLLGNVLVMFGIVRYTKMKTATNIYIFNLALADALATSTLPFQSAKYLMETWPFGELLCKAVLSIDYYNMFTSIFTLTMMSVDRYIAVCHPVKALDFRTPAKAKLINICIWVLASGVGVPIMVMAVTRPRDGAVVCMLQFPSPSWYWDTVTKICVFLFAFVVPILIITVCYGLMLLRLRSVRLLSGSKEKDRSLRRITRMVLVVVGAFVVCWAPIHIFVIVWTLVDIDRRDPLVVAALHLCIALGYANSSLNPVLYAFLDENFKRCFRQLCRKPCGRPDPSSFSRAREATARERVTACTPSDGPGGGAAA
# assay notes: Stimulation of [35S]GTP-gamma-S, binding at human recombinant Opioid receptor delta 1 transfected into CHO cells.
# Assay type: functional, cell-based
Threshold-based label: EC50 under 3 nM gives criterion met, EC50 not under 3 nM gives criterion not met.

query smiles: CN1CC[C@]23c4c5ccc(O)c4O[C@H]2c2[nH]c4ccccc4c2C[C@@]3(N)C1C5
group label: criterion not met
//
query smiles: CN1CC[C@]23c4c5ccc(O)c4O[C@H]2c2[nH]c4ccccc4c2C[C@@]3(CCCc2ccccc2)C1C5
group label: criterion not met
//
query smiles: CCN[C@@]12Cc3c([nH]c4ccccc34)[C@@H]3Oc4c(O)ccc5c4[C@@]31CCN(C)C2C5
group label: criterion met
//
query smiles: CN1CC[C@]23c4c5ccc(O)c4O[C@H]2c2[nH]c4ccccc4c2C[C@@]3(NC(=O)Cc2ccccc2)C1C5
group label: criterion met
//
query smiles: CCCCN[C@@]12Cc3c([nH]c4ccccc34)[C@@H]3Oc4c(O)ccc5c4[C@@]31CCN(C)C2C5
group label: criterion not met
//
query smiles: CCCCC(=O)N[C@@]12Cc3c([nH]c4ccccc34)[C@@H]3Oc4c(O)ccc5c4[C@@]31CCN(C)C2C5
group label: criterion not met
//
query smiles: CCCCCCC(=O)N[C@@]12Cc3c([nH]c4ccccc34)[C@@H]3Oc4c(O)ccc5c4[C@@]31CCN(C)C2C5
group label: criterion not met
//
query smiles: CN1CC[C@]23c4c5ccc(O)c4O[C@H]2c2[nH]c4ccccc4c2C[C@@]3(NCCCc2ccccc2)C1C5
group label: criterion met
//
query smiles: CN1CC[C@]23c4c5ccc(O)c4O[C@H]2c2[nH]c4ccccc4c2C[C@@]3(NC(=O)CCc2ccccc2)C1C5
group label: criterion met
//
query smiles: CN1CC[C@]23c4c5ccc(O)c4O[C@H]2c2[nH]c4ccccc4c2C[C@@]3(NCCc2ccccc2)C1C5
group label: criterion met
